# Tgt: HLA-DR DRB1*1101 (human)
# Protocol summary: competition with 125I-labelled reference peptide on purified HLA-DR
pIC50: −log10 of the molar value.

Binder	pIC50
YIQMCTELKLSDYEG (modifications not checked) [Flu.NP.43 peptide …]	5.23
